# TARGET_OR_TEST_SYSTEM: T1, recombinant human CD3 epsilon/gamma heterodimer (human, UniProt P07766 23-126; P09693 23-116)
# T1 construct: Recombinant protein in solution (200-50 nM) in the Octet assay; also called hCD3 E/G
# T1 sequence (P07766 23-126, chain 1 of 2): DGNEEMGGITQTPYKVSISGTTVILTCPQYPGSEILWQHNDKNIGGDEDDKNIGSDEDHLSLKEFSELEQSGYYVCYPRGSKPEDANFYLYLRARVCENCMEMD
# T1 sequence (P09693 23-116, chain 2 of 2): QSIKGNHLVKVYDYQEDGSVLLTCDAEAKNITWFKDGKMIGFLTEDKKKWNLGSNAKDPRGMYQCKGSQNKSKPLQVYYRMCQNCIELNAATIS
# EXPERIMENT_SUMMARY: Octet BLI, mAb on FAB2G sensor, hCD3 E/G 200-50 nM; R^2 0.99
MEASURED_ENDPOINT: Response
Give only the figure.

Use the examples below as a reference point.
binder="ABL-CD3-20 (antibody, V domains shown, Chimeric hybridoma mAb: human V, CH1, upper hinge; mouse middle hinge, CH2, CH3) VH: EVQLVESGGGLVKPGGSLRLSCAASGLTFSTYSMNWVRQAPGKGLEWVSSISSSGSYVYYADSVKGRFTMSRDNAKNSLYLQMNSLRAEDTAVYYCARERRELLFDYWGQGTLVTVSS VL: NFMLTQPHSVSESPGKTVTISCTRSSGSIASNYVQWYQQRPGSSPTSVIYEDNQRPSGVPDRFSGSIDSSSNSASLTISGLKTEDEADYYCQSYDRSNRVFGGGTKLTVL" measured_endpoint=Response value_observed=0.45
binder="ABL-CD3-55 (antibody, V domains shown, Chimeric hybridoma mAb: human V, CH1, upper hinge; mouse middle hinge, CH2, CH3) VH: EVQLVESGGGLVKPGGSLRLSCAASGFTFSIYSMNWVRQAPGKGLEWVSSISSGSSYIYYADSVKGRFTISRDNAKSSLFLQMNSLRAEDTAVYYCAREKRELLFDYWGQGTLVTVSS VL: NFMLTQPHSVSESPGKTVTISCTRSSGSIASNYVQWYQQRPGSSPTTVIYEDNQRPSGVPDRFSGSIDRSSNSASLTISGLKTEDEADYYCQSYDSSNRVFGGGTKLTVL" measured_endpoint=Response value_observed=0.08

# next binder below
Ask | Item under review: ABL-CD3-59 (antibody, V domains shown, Chimeric hybridoma mAb: human V, CH1, upper hinge; mouse middle hinge, CH2, CH3) VH: EVQLVESGGGLVKPGGSLRLSCTASGFTLSSYSMNWVRQAPGKGLEWVSSLSRSSNYIYYAVSVKGRFTISRDNAKNSLYLQMNSLRAEDTAVYYCARERWELLYFDYWGQGTLVTVSS VL: NFMLTQPHSVSESPGKTVTISCTRSSGSIASNYVQWYQQRPGSSPTTVIYEDNQRPSGVPDRFSGSIDSSSNSASLTISGLQTEDEADYYCQSYDNSIRVFGGGTKLTVL . Reported Response?
Reply | 0.58
